tested on: human cervix cancer cells Hela; test: Plk Cell Proliferation Inhibition Assay (CCK8, 72 hours); assay type: cell-based; details: Hela cells highly expressing Plk
Assay metric: pIC50
FYI, pIC50 means -log10 of a concentration in mol per litre.

A selection of reference data follows.
[[record]]
compound = "CC[C@@H]1C(=O)N(C)c2cnc(Nc3ccc(C(=O)N[C@H]4C[C@@H]5CN(CC6CC6)C[C@@H]5C4)c4c3OC(C)(C)C4)nc2N1C1CCCC1 [Example 10]"
assay_metric = "pIC50"
experimental_result = 8.30

[[record]]
compound = "CC[C@@H]1C(=O)N(C)c2cnc(Nc3ccc(C(=O)N[C@H]4C[C@@H]5CN(C)C[C@@H]5C4)c4c3OCC4)nc2N1C1CCCC1 [Example 11]"
assay_metric = "pIC50"
experimental_result = 9.00

[[record]]
compound = "CC[C@@H]1C(=O)N(C)c2cnc(Nc3ccc(C(=O)NC[C@H](O)CN4CCN(CC5CC5)CC4)c4c3OCC4)nc2N1C1CCCC1 [Example 7]"
assay_metric = "pIC50"
experimental_result = 8.52

[[record]]
compound = "CC[C@@H]1C(=O)N(C)c2cnc(Nc3ccc(C(=O)NC[C@@H]4CN5CCC[C@@H]5CO4)c4c3OCC4)nc2N1C1CCCC1 [Example 28]"
assay_metric = "pIC50"
experimental_result = 8.52


// returns reported pIC50 for input CC[C@@H]1C(=O)N(C)c2cnc(Nc3ccc(C(=O)N[C@@H]4C[C@@H]5CN(C)C[C@@H]5C4)c4c3OC(C)(C)C4)nc2N1C1CCCC1 [Example 6]
8.70

// returns reported pIC50 for input CC[C@@H]1C(=O)N(C)c2cnc(Nc3ccc(C(=O)N[C@H]4CC[C@H](N5CCN(CC6CC6)CC5)CC4)c4c3OC(C)(C)C4)nc2N1C1CCCC1 [Example 16]
7.52

// returns reported pIC50 for input CC[C@@H]1C(=O)N(C)c2cnc(Nc3ccc(C(=O)N[C@@H]4C[C@@H](OC(C)=O)[C@H](N(C)C)C[C@H]4OC(C)=O)c4c3OCC4)nc2N1C1CCCC1 [Example 3]
8.15

// returns reported pIC50 for input CC[C@@H]1C(=O)N(C)c2cnc(Nc3ccc(C(=O)NC4CCN(C)CC4)c4c3OC(COC)C4)nc2N1C1CCCC1 (stereo partly drawn) [Example 40]
8.70
